Molecular target: T1, Cynomolgus CXCR2 (cynomolgus, UniProt Q28519 3-353 (rhesus entry))
T1 construct: On transfected HEK293T or RBL-2H3 cells; native on cynomolgus neutrophils in the WBSC assay; also called cCXCR2; cynoCXCR2
T1 chain: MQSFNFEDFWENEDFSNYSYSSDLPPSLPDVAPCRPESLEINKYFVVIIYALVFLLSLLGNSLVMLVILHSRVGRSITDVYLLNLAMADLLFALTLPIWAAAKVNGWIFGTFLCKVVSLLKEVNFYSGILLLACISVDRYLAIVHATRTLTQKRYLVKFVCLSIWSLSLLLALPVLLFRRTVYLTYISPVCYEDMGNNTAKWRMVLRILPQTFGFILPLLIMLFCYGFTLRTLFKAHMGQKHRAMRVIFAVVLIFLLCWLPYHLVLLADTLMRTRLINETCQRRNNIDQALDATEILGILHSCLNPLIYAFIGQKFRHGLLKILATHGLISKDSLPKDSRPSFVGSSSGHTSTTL
Assay: FACS competition vs 3 nM FMAT-Blue Gro-α
Metric Name: % inhibition of max (%)
A number alone suffices; assume %.

Binder	% inhibition of max / %
CXCR20022 (VHH, Bivalent: two VHH joined by a GlySer linker; also called 163D2-35GS-163D2; not shown: C-terminal c-myc tag and His6 tag coded by pAX100) EVQLVESGGGLVQAGGSLRLSCAASGRTFSDYAMGWFRQAPGKEREFVAAITWNGGRVFYTASVKGRFTISRDNAKNTMYLQMNSLKPEDTAVYYCAADKDRRTDYLGHPVAYWGQGTQVTVSSGGGGSGGGGSGGGGSGGGGSGGGGSGGGGSGGGGSEVQLVESGGGLVQAGGSLRLSCAASGRTFSDYAMGWFRQAPGKEREFVAAITWNGGRVFYTASVKGRFTISRDNAKNTMYLQMNSLKPEDTAVYYCAADKDRRTDYLGHPVAYWGQGTQVTVSS	98

--- query ---
Request: Give the reported % inhibition of max for this binder. CXCR20023 (bispecific antibody, Two different VHH joined by a GlySer linker; also called 163D2-35GS-163E3; not shown: C-terminal c-myc tag and His6 tag coded by pAX100) EVQLVESGGGLVQAGGSLRLSCAASGRTFSDYAMGWFRQAPGKEREFVAAITWNGGRVFYTASVKGRFTISRDNAKNTMYLQMNSLKPEDTAVYYCAADKDRRTDYLGHPVAYWGQGTQVTVSSGGGGSGGGGSGGGGSGGGGSGGGGSGGGGSGGGGSEVQLVESGGGLVQPGGSLRLSCVASGRIFSSNAMGWFRQAPGKEREFVAAITWRSGGSAYYADSAKGRFTISRDNAKNTVYLQMNSLKPEDTAVYYCAAGGSSWLSFPPDYWGQGTQVTVSS
Response: 96
